# protocol-notes: prion 5' UTR mRNA inhibition, cherry-pick retest (AID 504592)
# details: cell-based prion protein 5' UTR reporter, plate reader; at 2.5 µM
Among all 1,100 compounds or so, about 540 (49%) were called active. Inconclusive results (about 5%) are left out. Cut-off read from the data, not from the text of the source: active = inhibition above about 54%; inconclusive = no clear call, values can overlap the other calls; inactive = below that. So high a share suggests a set chosen from earlier hits. Only a sample is shown.
The reply should be one of these categories: TRUE (active), FALSE (inactive)

Inquiry: Which outcome was assigned to CCCOC(=O)c1[nH]c2c(c1C)C(=O)CC(c1cccs1)C2 (stereo not given) in this test?
Reply text: TRUE

Inquiry: Write down the call the test reported for this compound. Item: CC1Cc2ccccc2N1C(=O)c1cc2sccc2n1Cc1ccccc1 (stereo not given)
Reply text: FALSE

Inquiry: In this assay, the call recorded for Nc1ccc(OCC(O)C[n+]2ccc(CCS(=O)(=O)[O-])cc2)cc1 (stereo not given) was what?
Reply text: FALSE

Continuing:
Inquiry: Identify the outcome logged in this assay for the compound shown: `Cc1ccc(S(=O)(=O)Nc2nc3ccccc3s2)cc1[N+](=O)[O-]`
Reply text: TRUE

Inquiry: What did the test return for `Oc1ccc(N2CCN(C(=S)NCc3ccccc3)CC2)cc1` ?
Reply text: FALSE

Inquiry: How was `COc1ccc(C(=O)Nc2ccccc2C(=O)N/N=C/c2ccc(O)c(OC)c2)cc1` classified in this test?
Reply text: TRUE

Inquiry: Assay result, entry `Cc1cc(NC(=O)/C=C/C(=O)N(CC(=O)NC2CCCC2)c2ccc(F)cc2)no1` — outcome?
Reply text: FALSE

Inquiry: Write down the call the test reported for this compound. Item: COc1cccc2c1C(=O)c1c(O)c3c(c(O)c1C2=O)CC(O)(C(C)=NNC(=O)c1ccc(Cl)c(Cl)c1)CC3OC1CC(N)C(O)C(C)O1 (stereo not given)
Reply text: TRUE

Inquiry: Would you mind telling me which call this test gave CCC(C)(O)C(=O)OC1C(=O)OC2CC3C(C)=CC(=O)C(O)C3(C)C3C4(O)OCC23C1C(C)C4O (stereo not given) ?
Reply text: TRUE

Inquiry: Fill in: this test's call for `CC(=O)c1ccc(Oc2cc(C)nc(-n3nc(C)cc3C)n2)cc1` is ___
Reply text: TRUE

###

# protocol-notes: prion 5' UTR mRNA inhibition, cherry-pick retest (AID 504592)
# details: cell-based prion protein 5' UTR reporter, plate reader; at 2.5 µM; stronger effect = higher value
The campaign covered roughly 1,100 compounds. About 540 (49%) were called active. Inconclusive results (about 5%) are left out. The set was probably picked from earlier hits. Not all results are given here.
# if value of inhibition reaches 10%, tag Criterion met; if it stays below, tag Criterion not met

Below, 6 molecules whose answers are already recorded.
Inquiry: Hi team, for `Cc1cc(Nc2ccccc2)n(C(=O)c2ccc(N)cc2)n1` , is the recorded inhibition at or above 10%?
Reply text: Criterion met

Inquiry: Determine whether measured inhibition meets or exceeds 10% for `NC(=O)c1ccc(NC(=O)COC(=O)c2ccc([N+](=O)[O-])cc2)cc1`
Reply text: Criterion met

Inquiry: I'd appreciate it if you could say whether COC1C(O)C(C)OC(OC2CCC3(C=O)C(CCC4C3CCC3(C)C(C5=CC(=O)OC5)CCC43O)C2)C1O (stereo unspecified) has inhibition at least equal to 10%.
Reply text: Criterion met

Inquiry: Has `C=CCOc1ccc(/C=C2\SC(=S)N(CCC(=O)O)C2=O)cc1` a recorded inhibition greater than or equal to 10%?
Reply text: Criterion met

Inquiry: Hi team, for `CN(NC(=O)c1ccccc1F)c1nc(C(F)(F)F)nc2ccccc12` , is the recorded inhibition at or above 10%?
Reply text: Criterion met

Inquiry: Form field: inhibition at least 10%? Entry: `C=CCn1c(C)cc(C2=NNC(=NCC)SC2)c1C`
Reply text: Criterion met

---
Inquiry: Is inhibition at least 10%? Consider `O=C(NNC(=O)c1ccccc1O)c1ccccc1O`
Reply text: Criterion met

Inquiry: Record `COc1ccccc1N1CCN(C(=O)c2cc(=O)c3cc(C)cc(C)c3o2)CC1` ; criterion: inhibition no lower than 10%. Met?
Reply text: Criterion met

Inquiry: Is inhibition for `CCOc1cc(NS(=O)(=O)c2ccc(OC)cc2)c(OCC)cc1NC(C)=O` at or above 10%?
Reply text: Criterion not met

Inquiry: Entry `COc1ccc(OC)c(Cc2cnc3nc(N)nc(N)c3c2C)c1` : is its inhibition no less than 10%?
Reply text: Criterion not met

Inquiry: Check this molecule for inhibition at or above 10%: C/C(=N\NC(=O)c1cc2c(s1)CCC(C)C2)c1cccnc1 (stereo unspecified)
Reply text: Criterion not met
